Each record here notes measured IC50.
- Test system: H929 cells
- measurement-notes: Cell viability assay (H929 10 FBS)
- Type: cell-based
- run-conditions: Homo sapiens, NCI-H929, 24 hours, read-out: H929_10FBS IC50

Here is how some molecules turned out for IC50.
In [3]: df
Out[3]:
                                   molecule     result
0  CN(C)C1CN(C(=O)O[C@H]2/C=C/CN(C)C(C)(C)C(=O)NS(=O)(=O)c3ccc4c(c3)N(C[C@@H]3CC[C@H]32)C[C@@]2(CCCc3cc(Cl)ccc32)CO4)C1   < 500 nM
1  CC(C)(C)OC(=O)N1CCC(C(=O)NS(=O)(=O)c2ccc3c(c2)N(CC2CCC2)CC2(CCCc4cc(Cl)ccc42)CO3)CC1 (centres unmarked)  > 1000 nM
2  CCOC1CN(C(=O)O[C@H]2/C=C/CN(C)C3(CCC3)C(=O)NS(=O)(=O)c3ccc4c(c3)N(C[C@@H]3CC[C@H]32)C[C@@]2(CCCc3cc(Cl)ccc32)CO4)C1   < 500 nM
3  CC1(C)OC/C=C/[C@H](OC(=O)N2CCOCC2)[C@@H]2CC[C@H]2CN2C[C@@]3(CCCc4cc(Cl)ccc43)COc3ccc(cc32)S(=O)(=O)NC1=O   < 500 nM

--- query ---
// IC50 value for `CC(C)NC(=O)O[C@H]1/C=C/CN(C)C(C)(C)C(=O)NS(=O)(=O)c2ccc3c(c2)N(C[C@@H]2CC[C@H]21)C[C@@]1(CCCc2cc(Cl)ccc21)CO3` : < 500 nM
